Molecular target: DYRK1A (Homo sapiens (Human), UniProt Q13627)
Assay: DYRK1A Inhibition Assay
Type: biochemical
Conditions: Compounds of Formula (I); DYRK1A 1 nM, ATP 20 μM, Ser/Thr 18 peptide 2 μM, 90 minutes; read-out: DYRK1 IC50
pIC50: −log10 of the molar value.
For each record, write down the corresponding pIC50.

Identify pIC50 associated with the compound Cn1cc(-c2ccc3cnc4c(c3c2)c([C@H]2CC[C@H](N(C)C)CC2)cn4C)cn1 [Compound 50]
7.00 to 8.00

Identify pIC50 associated with the compound CC(C)CN1CCC(c2cc3c(ncc4ccc(-c5cncn5C)cc43)[nH]2)CC1 [Compound 87]
7.00 to 8.00

Identify pIC50 associated with the compound Cc1ncc(-c2ccc3cnc4cc(C5CCOCC5)sc4c3c2)s1 [Compound 79]
7.00 to 8.00

Identify pIC50 associated with the compound CN1CCC(C#Cc2ncc(-c3ccc4cnc5c(ccn5C)c4c3)s2)CC1 [Compound 62]
7.00 to 8.00

Identify pIC50 associated with the compound Cn1cc(-c2ccc3cnc4c(c3c2)c([C@H]2CC[C@@H](N(C)C)CC2)cn4C)cn1 [Compound 49]
7.00 to 8.00

Identify pIC50 associated with the compound Cn1cc(-c2ccc3c4c(ncc3c2)NC(=O)C4)cn1 [Compound 84]
< 6.00

Identify pIC50 associated with the compound O[C@H]1CCN(c2cncc(-c3ccc4cnc5[nH]c(C6CCC6)cc5c4c3)c2)C1 [Compound 69]
7.00 to 8.00

Identify pIC50 associated with the compound Cn1cc(-c2ccc3cnc4c(c3c2)CCO4)cn1 [Compound 74]
7.00 to 8.00

Identify pIC50 associated with the compound Cn1cc(-c2ccc3cnc4c(c3c2)c([C@H]2CC[C@H](C(=O)O)CC2)cn4C)cn1 [Compound 47]
≥ 8.00
